Target: T1, human SLC34A2 (human, UniProt O95436 1-690)
T1 construct: whole, on cells; also called human solute carrier 34 A2; NaPi2b
T1 sequence (looked up): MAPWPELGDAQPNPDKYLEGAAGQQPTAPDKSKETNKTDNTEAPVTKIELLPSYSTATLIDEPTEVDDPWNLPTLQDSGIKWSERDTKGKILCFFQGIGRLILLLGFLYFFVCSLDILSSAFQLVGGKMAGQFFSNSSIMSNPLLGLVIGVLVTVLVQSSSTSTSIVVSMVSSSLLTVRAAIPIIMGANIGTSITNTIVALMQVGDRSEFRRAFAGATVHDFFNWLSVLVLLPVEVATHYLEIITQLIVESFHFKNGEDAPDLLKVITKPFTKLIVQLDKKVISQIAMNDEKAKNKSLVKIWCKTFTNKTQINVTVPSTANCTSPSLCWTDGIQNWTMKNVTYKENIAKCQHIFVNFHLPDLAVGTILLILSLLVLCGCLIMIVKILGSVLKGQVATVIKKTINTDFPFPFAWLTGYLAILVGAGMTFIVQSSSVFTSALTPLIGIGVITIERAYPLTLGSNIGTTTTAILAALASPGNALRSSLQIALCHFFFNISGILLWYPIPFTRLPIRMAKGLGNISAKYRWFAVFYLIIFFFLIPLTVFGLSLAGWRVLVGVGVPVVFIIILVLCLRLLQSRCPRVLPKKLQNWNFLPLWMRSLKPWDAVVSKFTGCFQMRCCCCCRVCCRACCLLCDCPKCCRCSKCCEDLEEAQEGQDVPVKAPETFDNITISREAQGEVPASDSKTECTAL
Experiment: FACS, OVCAR3 cells
Readout: Top (MFI)
Express your answer as a number followed by its unit.

# Binder, Top (MFI)
data = [
    ("xi55E5B6D12 hIgG1 (antibody, V domains shown, chimeric, hIgG1) VH: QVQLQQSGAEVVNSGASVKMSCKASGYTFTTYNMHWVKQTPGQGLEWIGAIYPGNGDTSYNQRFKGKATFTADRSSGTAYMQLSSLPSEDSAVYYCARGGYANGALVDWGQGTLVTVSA VL: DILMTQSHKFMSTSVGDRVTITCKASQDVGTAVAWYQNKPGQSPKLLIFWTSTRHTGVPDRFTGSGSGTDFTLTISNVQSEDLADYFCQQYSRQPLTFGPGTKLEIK", "71400 MFI"),
    ("30H9B8F9 VH_P1/VL hIgG1 (antibody, V domains shown, PTM-derisked chimeric, hIgG1; that P1 is the N=>S version follows from the humanized .p1 chains; also called 30H9B8F9.p1 hIgG1) VH: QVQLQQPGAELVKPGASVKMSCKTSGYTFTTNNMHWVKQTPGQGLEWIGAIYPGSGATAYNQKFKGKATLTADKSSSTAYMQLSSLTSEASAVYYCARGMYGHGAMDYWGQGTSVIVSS VL: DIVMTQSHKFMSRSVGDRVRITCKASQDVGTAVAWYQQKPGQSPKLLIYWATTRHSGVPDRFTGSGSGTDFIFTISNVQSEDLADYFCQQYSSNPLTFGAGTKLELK", "70400 MFI"),
]

Reported Top (MFI) for 62G10E4G8 VH_P3/VL hIgG1 (antibody, V domains shown, PTM-derisked chimeric, hIgG1; that P3 is the NA version follows from the humanized .p3 chains; also called 62G10E4G8.p3 hIgG1) VH: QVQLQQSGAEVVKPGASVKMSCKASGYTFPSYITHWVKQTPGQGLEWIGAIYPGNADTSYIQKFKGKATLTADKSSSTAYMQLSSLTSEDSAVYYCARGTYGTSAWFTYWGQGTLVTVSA VL: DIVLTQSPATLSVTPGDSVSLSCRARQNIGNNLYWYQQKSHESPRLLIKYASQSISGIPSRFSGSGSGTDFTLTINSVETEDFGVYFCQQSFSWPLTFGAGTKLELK : what is it?
72500 MFI

Next entry: xi62G10E4G8 hIgG1 (antibody, V domains shown, chimeric, hIgG1) VH: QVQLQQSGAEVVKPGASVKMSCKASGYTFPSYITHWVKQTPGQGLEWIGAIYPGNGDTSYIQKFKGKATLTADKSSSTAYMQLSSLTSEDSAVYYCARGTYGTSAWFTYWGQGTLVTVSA VL: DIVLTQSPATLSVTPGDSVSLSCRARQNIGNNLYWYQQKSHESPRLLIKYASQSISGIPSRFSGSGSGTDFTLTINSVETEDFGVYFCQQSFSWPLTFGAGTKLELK
71100 MFI

Next entry: 91C9F1.p1 hIgG1 (antibody, V domains shown, PTM-derisked chimeric, hIgG1; also called 91C9F1.pl hIgG1) VH: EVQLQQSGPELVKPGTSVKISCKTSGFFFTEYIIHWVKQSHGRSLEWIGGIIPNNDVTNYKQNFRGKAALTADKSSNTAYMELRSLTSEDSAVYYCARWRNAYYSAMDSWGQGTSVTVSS VL: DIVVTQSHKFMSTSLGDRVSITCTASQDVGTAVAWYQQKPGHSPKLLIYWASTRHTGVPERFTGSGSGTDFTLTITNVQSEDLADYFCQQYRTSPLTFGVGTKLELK
63500 MFI

Next entry: xi90G10H7 hIgG1 (antibody, V domains shown, chimeric, hIgG1) VH: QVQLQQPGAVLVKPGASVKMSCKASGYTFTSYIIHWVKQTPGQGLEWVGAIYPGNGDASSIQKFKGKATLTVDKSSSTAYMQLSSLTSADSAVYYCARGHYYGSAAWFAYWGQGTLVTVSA VL: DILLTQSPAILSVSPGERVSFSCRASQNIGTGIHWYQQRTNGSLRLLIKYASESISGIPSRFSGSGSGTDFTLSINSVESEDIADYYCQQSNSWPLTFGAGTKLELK
72900 MFI

Next entry: xi30H9B8F9 hIgG1 (antibody, V domains shown, chimeric, hIgG1) VH: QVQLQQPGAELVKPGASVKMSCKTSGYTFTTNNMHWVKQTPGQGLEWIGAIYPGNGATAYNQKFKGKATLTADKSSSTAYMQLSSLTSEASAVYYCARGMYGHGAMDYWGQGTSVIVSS VL: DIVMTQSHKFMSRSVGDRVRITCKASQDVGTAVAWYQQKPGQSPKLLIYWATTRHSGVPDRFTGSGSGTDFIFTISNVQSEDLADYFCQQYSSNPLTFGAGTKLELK
69100 MFI
